- target.desc: T1, FcRn-p3 fusion protein (human, UniProt P55899 24-297; P61769 21-119)
- T1 construct: baculovirus expressed; coated on ELISA wells; not shown: amino terminal part of bacteriophage p3 protein and CVDE protein
- measurement.description: phage ELISA pH6
measured.endpoint: Ratio/Fc-H

Form field Ratio/Fc-H, entry C6A_72 (other, EU numbering) CPPCPAPELLGGPSVFLFPPKPKDALMISRTPEVTCVVVDVSHEDPEVKFNWYVDGVEVHNAKTKPREEQYNSTYRVVSVLTVLHQDWLNGKEYKCKVSNKALPAPIEKTISKAKGQPREPQVYTLPPSRDELTKNQVSLTCLVKGFYPSDIAVEWESNGQPEKNYKTTPPVLDSDGSFFLYSKLTVDKSRWQQGNVFSCSVMHEALHYHYTQKSLSLSPGK : 8 fold

Form field Ratio/Fc-H, entry C7A_27 (other, EU numbering) CPPCPAPELLGGPSVFLFPPKPKDTLMISRTPEVTCVVEDVSHEDPEVKFNWYVDGVEVHNAKTKPREEQYNSTYRVVSVLNVLHQDWLNGKEYKCKVSNKALPAPIEKTISKAKGQPREPQVYTLPPSRDELTKNQVSLTCLVKGFYPSDIVVEWESNGQPENNYKTTPPMLDSDGSFFLYSKLTVDKSRWQQGNVFSCSVMHEALHYHYTQKSLSLSPGK : 2.6 fold

Form field Ratio/Fc-H, entry C6A_35 (other, EU numbering) CPPCPAPELLGGPSVFLFPPKPKDALMISRTPEVTCVVVDVSHEDPEVKFNWYVDGVEVHNAKTKPREEQYNSTYRVVSVLTVLHQDWLDGKEYKCKVSNKALPVPIEKTISKAKGQPREPQVYTLPPSRDELTKNQVSLTCLVKGFYPSDIAVEWESNGQPENNYKTTPPVLDSDGSFFLYSKLTVDKSRWQQGNVFSCSVMHEALHYHYTQKSLSLSPGK : 1.8 fold

Form field Ratio/Fc-H, entry T4A_44 (other, EU numbering) GPPCPAPELLGGPSVFLFPPKPKDTLMISRTPEVTCVVEDVSHEDPEVKFNWYVDGVEVHNAKTKPREEQYNSTYRVVSVLTVLHQDWLNGKEYKCKVSNKALPAPIEKTISKAKGQPREPQVYTLPPSRDELTKNQVSLTCLVKGFYPSDIVVEWESNGQPENNYKTTPPVLDSDGSLFLYSKLTVDKSRWQQGNVFSCSVMHEALHNHYTQKSLSLSPGK : 3.8 fold

Form field Ratio/Fc-H, entry T3A_08 (other, EU numbering) CPPCPAPELLGGPSVFLFPPKPKDTLMISRTPEVTCVVEDVSHEDPEVKFNWYVDGVEVHNAKTKPREEQYNSTYRVVSVLTVLHQDWLNGKEYKCKVSNKALPAPIEKTISKAKGQPREPQVYTLPPSRDELTKNQVSLTCLVKGFYPSDIVVEWESNGQPENNYKTTPPVLDSDGSLFLYSKLTVDKSRWQQGNVFSCSVMHEALHNHYTQKSLSLSPGK : 1.1 fold
